- Tested on: human MDR1 (P-gp)
- procedure_text: in vitro
- reported_conditions: dog, MDCK-MDR1
endpoint: Papp

>>> value("C[C@@H]1COCCN1c1nc(-c2cnc(N)s2)nc2c1C[C@@H]1COCCN21")
"< 60 ×10⁻⁶ cm/s"
>>> value("C[C@@H]1COCCN1c1nc(-c2nnc(N)s2)nc2c1C[C@@H]1COCCN21")
"< 60 ×10⁻⁶ cm/s"
>>> value("C[C@@H]1COCCN1c1nc(-c2cnc(N)cn2)nc2c1C[C@@H]1COCCN21 [Compound 12b, reference compound]")
"< 60 ×10⁻⁶ cm/s"

src = paper PMC8128076
